Test system: PCSK9 gene splice site
Assay type: cell-based, human
Param threshold (6%) applies to Human Primary Hepatocytes-splice site editing % 2500 ng/mL; output Met when value >= threshold, Not met when value < threshold.

GA087: PCSK9 gRNA for ABE8.8 splice site editing, Human/Cyno (nucleic acid, 2'-O-methyl at 1, 2, other sugars and backbone not given here; further chemistry not fully specified, PCSK9 gRNA for ABE8.8 splice site editing, Human/Cyno) guide: UCACCTGCTCCTGAGGGGCCGTTTTAGAGCTAGAAATAGCAAGTTAAAATAAGGCTAGTCCGTTATCAACTTGAAAAAGTGGCACCGAGTCGGTGCTTTT; Not met
GA083: PCSK9 gRNA for ABE8.8 splice site editing, Human/Cyno (nucleic acid, 2'-O-methyl at 1, 2, other sugars and backbone not given here; further chemistry not fully specified, PCSK9 gRNA for ABE8.8 splice site editing, Human/Cyno) guide: UAAGGCCCAAGGGGGCAAGCGTTTTAGAGCTAGAAATAGCAAGTTAAAATAAGGCTAGTCCGTTATCAACTTGAAAAAGTGGCACCGAGTCGGTGCTTTT; Not met
GA085: PCSK9 gRNA for ABE8.8 splice site editing, Human/Cyno (nucleic acid, listed as RNA; modified_base 1: mod_base = OTHER; note = 2'-O-Methyl-guanosine phosphorothioate; modified_base 2: mod_base = OTHER; note = 2'-O-Methyl-cytidine phosphorothioate; modified_b, PCSK9 gRNA for ABE8.8 splice site editing, Human/Cyno) guide: GCCTCTTCACCTGCTCCTGAGTTTTAGAGCTAGAAATAGCAAGTTAAAATAAGGCTAGTCCGTTATCAACTTGAAAAAGTGGCACCGAGTCGGTGCTTTT; Not met
GA088: PCSK9 gRNA for ABE8.8 splice site editing, Human/Cyno (nucleic acid, 2'-O-methyl at 1, 2, other sugars and backbone not given here; further chemistry not fully specified, PCSK9 gRNA for ABE8.8 splice site editing, Human/Cyno) guide: CCCAGGCTGCAGCTCCCACTGTTTTAGAGCTAGAAATAGCAAGTTAAAATAAGGCTAGTCCGTTATCAACTTGAAAAAGTGGCACCGAGTCGGTGCTTTT; Met

Is reported Human Primary Hepatocytes-splice site editing % 2500 ng/mL greater than or equal to 6% here: GA080: PCSK9 gRNA for ABE8.8 splice site editing, Human/Cyno (nucleic acid, 2'-O-methyl at 1, 2, other sugars and backbone not given here; further chemistry not fully specified, PCSK9 gRNA for ABE8.8 splice site editing, Human/Cyno) guide: CCTTTCCAGGTCATCACAGTGTTTTAGAGCTAGAAATAGCAAGTTAAAATAAGGCTAGTCCGTTATCAACTTGAAAAAGTGGCACCGAGTCGGTGCTTTT
Not met

Is reported Human Primary Hepatocytes-splice site editing % 2500 ng/mL greater than or equal to 6% here: GA079: PCSK9 gRNA for ABE8.8 splice site editing, Human/Cyno (nucleic acid, listed as RNA; modified_base 1: mod_base = OTHER; note = 2'-O-Methyl-cytidine phosphorothioate; modified_base 2: mod_base = OTHER; note = 2'-O-Methyl-uridine phosphorothioate; modified_bas, PCSK9 gRNA for ABE8.8 splice site editing, Human/Cyno) guide: CTTTCCAGGTCATCACAGTTGTTTTAGAGCTAGAAATAGCAAGTTAAAATAAGGCTAGTCCGTTATCAACTTGAAAAAGTGGCACCGAGTCGGTGCTTTT
Not met

Is reported Human Primary Hepatocytes-splice site editing % 2500 ng/mL greater than or equal to 6% here: GA074: PCSK9 gRNA; protospacer TGCTTACCTGTCTGTGGAAG (SEQ ID NO: 68), splice donor of intron 4 (nucleic acid, listed as RNA; modified_base 1: mod_base = OTHER; note = 2'-O-Methyl-uridine phosphorothioate; modified_base 2: mod_base = OTHER; note = 2'-O-Methyl-guanosine phosphorothioate; modified_ba) guide: TGCTTACCTGTCTGTGGAAGGTTTTAGAGCTAGAAATAGCAAGTTAAAATAAGGCTAGTCCGTTATCAACTTGAAAAAGTGGCACCGAGTCGGTGCTTTT
Met

Is reported Human Primary Hepatocytes-splice site editing % 2500 ng/mL greater than or equal to 6% here: GA078: PCSK9 gRNA for ABE8.8 splice site editing, Human/Cyno (nucleic acid, listed as RNA; note = Description of Combined DNA/RNA Molecule: Synthetic oligonucleotide; modified_base 1: mod_base = OTHER; note = 2'-O-Methyl-adenosine phosphorothioate; modified_base, PCSK9 gRNA for ABE8.8 splice site editing, Human/Cyno) guide: AGCACCTACCTCGGGAGCTGGTTTTAGAGCTAGAAATAGCAAGTTAAAATAAGGCTAGTCCGTTATCAACTTGAAAAAGTGGCACCGAGTCGGTGCTTTT
Met

Is reported Human Primary Hepatocytes-splice site editing % 2500 ng/mL greater than or equal to 6% here: GA082: PCSK9 gRNA for ABE8.8 splice site editing, Human/Cyno (nucleic acid, listed as RNA; modified_base 1: mod_base = OTHER; note = 2'-O-Methyl-cytidine phosphorothioate; modified_base 2: mod_base = OTHER; note = 2'-O-Methyl-uridine phosphorothioate; modified_bas, PCSK9 gRNA for ABE8.8 splice site editing, Human/Cyno) guide: CTTACCTGCCCCATGGGTGCGTTTTAGAGCTAGAAATAGCAAGTTAAAATAAGGCTAGTCCGTTATCAACTTGAAAAAGTGGCACCGAGTCGGTGCTTTT
Met

Is reported Human Primary Hepatocytes-splice site editing % 2500 ng/mL greater than or equal to 6% here: GA090: PCSK9 gRNA for ABE8.8 splice site editing, Human/Cyno (nucleic acid, listed as RNA; modified_base 1: mod_base = OTHER; note = 2'-O-Methyl-guanosine phosphorothioate; modified_base 2: mod_base = OTHER; note = 2'-O-Methyl-cytidine phosphorothioate; modified_b, PCSK9 gRNA for ABE8.8 splice site editing, Human/Cyno) guide: GCAGGTGACCGTGGCCTGCGGTTTTAGAGCTAGAAATAGCAAGTTAAAATAAGGCTAGTCCGTTATCAACTTGAAAAAGTGGCACCGAGTCGGTGCTTTT
Not met

Is reported Human Primary Hepatocytes-splice site editing % 2500 ng/mL greater than or equal to 6% here: GA084: PCSK9 gRNA for ABE8.8 splice site editing, Human/Cyno (nucleic acid, 2'-O-methyl at 1, 2, other sugars and backbone not given here; further chemistry not fully specified, PCSK9 gRNA for ABE8.8 splice site editing, Human/Cyno) guide: CCTCTTCACCTGCTCCTGAGGTTTTAGAGCTAGAAATAGCAAGTTAAAATAAGGCTAGTCCGTTATCAACTTGAAAAAGTGGCACCGAGTCGGTGCTTTT
Met

Is reported Human Primary Hepatocytes-splice site editing % 2500 ng/mL greater than or equal to 6% here: GA077: PCSK9 gRNA for ABE8.8 splice site editing, Human/Cyno (nucleic acid, 2'-O-methyl at 1, 2, other sugars and backbone not given here; further chemistry not fully specified, PCSK9 gRNA for ABE8.8 splice site editing, Human/Cyno) guide: UCCCAGGCCTGGAGTTTATTGTTTTAGAGCTAGAAATAGCAAGTTAAAATAAGGCTAGTCCGTTATCAACTTGAAAAAGTGGCACCGAGTCGGTGCTTTT
Not met

Is reported Human Primary Hepatocytes-splice site editing % 2500 ng/mL greater than or equal to 6% here: GA072: PCSK9 gRNA for ABE8.8 splice site editing, Human/Cyno (nucleic acid, 2'-O-methyl at 1, 2, other sugars, backbone and T or U not given here; further chemistry not fully specified, PCSK9 gRNA for ABE8.8 splice site editing, Human/Cyno) guide: GGTGGCTCACCAGCTCCAGCGTTTTAGAGCTAGAAATAGCAAGTTAAAATAAGGCTAGTCCGTTATCAACTTGAAAAAGTGGCACCGAGTCGGTGCTTTT
Not met

Is reported Human Primary Hepatocytes-splice site editing % 2500 ng/mL greater than or equal to 6% here: GA089: PCSK9 gRNA for ABE8.8 splice site editing, Human/Cyno (nucleic acid, 2'-O-methyl at 1, 2, other sugars and backbone not given here; further chemistry not fully specified, PCSK9 gRNA for ABE8.8 splice site editing, Human/Cyno) guide: CCCCAGGCTGCAGCTCCCACGTTTTAGAGCTAGAAATAGCAAGTTAAAATAAGGCTAGTCCGTTATCAACTTGAAAAAGTGGCACCGAGTCGGTGCTTTT
Met

Attribution: patent US20250152746A1
